Here's what we have: IC50 numbers for HPK1 (Homo sapiens, UniProt Q92918).

Illustrative cases are given below, each with its answer.
>>> experimental_value("CN1CCN2c3ccc(-c4n[nH]c5cc(C#N)c(-c6c(F)cc(C7CCCC7N)cc6F)cc45)cc3OCC2C1 (stereo not shown) [Compound 26]")
"≤ 10 nM"
>>> experimental_value("Cc1ccccc1-c1cc2c(-c3ccc4c(c3)OCC3CN(C)CCN43)n[nH]c2cc1C#N (stereo not shown) [Compound 3]")
"10 to 100 nM"
>>> experimental_value("CN1CCN2c3ccc(-c4n[nH]c5cc(C#N)c(-c6ccccc6F)cc45)cc3OCC2C1 (stereo not shown) [Compound 1]")
"≤ 10 nM"

Please examine the following record next.
Task: What value of measured IC50 is listed for CNCc1cc(F)c(-c2cc3c(-c4ccc5c(c4)OCC4CN(C)CCN54)n[nH]c3cc2C#N)c(F)c1 (stereo not shown) [Compound 18] ?
Result: ≤ 10 nM

###

Here's what we have: pIC50 numbers for UniProt:Q92918.
pIC50: −log10 of the molar value.

>>> experimental_value("CN1CCN2c3ccc(-c4n[nH]c5cc(C#N)c(-c6cccn7cnnc67)cc45)cc3OCC2C1 (stereo not drawn)")
"≥ 8.00"
>>> experimental_value("COc1cccc(F)c1-c1cc2c(-c3ccc4c(c3)OCC3CN(C)CCN43)c[nH]c2cc1C#N (stereo not drawn)")
"≥ 8.00"

Please examine the following record next.
Task: What value of measured pIC50 is listed for COc1cccc(F)c1-c1ccc2[nH]nc(-c3ccc4c(c3)OCC3CN(C)CCN43)c2n1 (stereo not drawn) ?
Result: 7.00 to 8.00

###

# TARGET OR SYSTEM: UniProt Q92918
pIC50: −log10 of the molar value.
ENDPOINT: pIC50

Illustrative cases are given below, each with its answer.
>>> experimental_value("CN1CCN2c3ccc(-c4n[nH]c5cnc(-c6ccc(C(=O)N7CC(N(C)C)C7)cc6)cc45)cc3OCC2C1 (stereo not shown)")
"7.00 to 8.00"
>>> experimental_value("CN1CCN2c3ccc(-c4n[nH]c5cc(C#N)c(-c6ccn7cnnc7c6)cc45)cc3OCC2C1 (stereo not shown)")
"≥ 8.00"
>>> experimental_value("COc1cccc(F)c1-c1cc2c(-c3ccc4c(c3)OCC3CN(C)CCN43)c[nH]c2cn1 (stereo not shown)")
"≥ 8.00"

Please examine the following record next.
Task: What value of measured pIC50 is listed for CN1CCN2c3ccc(-c4n[nH]c5cc(C#N)c(-c6cccc7[nH]ncc67)cc45)cc3OCC2C1 (stereo not shown) ?
Result: ≥ 8.00

###

pIC50: −log10 of the molar value.
Here's what we have: pIC50 numbers for HPK1 (Homo sapiens).

Illustrative cases are given below, each with its answer.
>>> experimental_value("CN(C)CCN(C)C(=O)c1ccc(-c2n[nH]c3ncc(-c4ccc5c(c4)OCC4CN(C)CCN54)cc23)cc1 (stereo not drawn)")
"≥ 8.00"
>>> experimental_value("CN1CCN2c3ccc(-c4n[nH]c5cnc(-c6cccc(F)c6F)cc45)cc3OCC2C1 (stereo not drawn)")
"7.00 to 8.00"
>>> experimental_value("CN1CCN2c3ccc(-c4n[nH]c5cc(C#N)c(-c6ccccc6F)cc45)cc3OC[C@@H]2C1")
"≥ 8.00"
>>> experimental_value("COc1ccncc1-c1cc2c(-c3ccc4c(c3)OCC3CN(C)CCN43)n[nH]c2cn1 (stereo not drawn)")
"≥ 8.00"

Task: What value of measured pIC50 is listed for CNCc1cc(C)c(-c2nc3c(-c4ccc5c(c4)OCC4CN(C)CCN54)c[nH]c3cc2C#N)c(F)c1 (stereo not drawn) ?
Result: ≥ 8.00

Task: Repeat for the following compound: Cc1ccncc1-c1cc2c(-c3ccc4c(c3)OCC3CN(C)CCN43)n[nH]c2cc1C#N (stereo not drawn)
Result: ≥ 8.00

Task: Repeat for the following compound: Cc1ccc(F)c(F)c1-c1cc2c(-c3ccc4c(c3)OCC3CN(C)CCN43)n[nH]c2cc1C#N (stereo not drawn)
Result: ≥ 8.00

Task: Repeat for the following compound: CNCc1cc(F)c(-c2cc3c(-c4ccc5c(c4)OCC4CN(C)CCN54)n[nH]c3cc2C#N)c(C(F)(F)F)c1 (stereo not drawn)
Result: ≥ 8.00

Task: Repeat for the following compound: CN1CCN2c3ccc(-c4n[nH]c5cc(C#N)c(-c6c(F)cc(C7CCCCN7)cc6F)cc45)cc3OCC2C1 (stereo not drawn)
Result: ≥ 8.00

The reported measurements were obtained from patent US12686689B2.
